Measured cytotoxicity at 70.5 h accompanies every entry in the list below.
# Test Name: Human HepG2 cell viability assay in 384 well format
# Assay type: toxicity, cell-based
# Parameters: dose 125 nL, time 70.5 hour; concentration not given beside the values
# Measurement Conditions: HepG2 cells, read-out: Inhibition
Just the number in %, nothing appended.

A selection of reference data follows.
| Compound | Reported Result |
| --- | --- |
| O=C1CN(C(=O)CC2c3ccccc3CCc3ccccc32)CCN1 | 2.75 |
| O=S(=O)(C1CC1)N1CCOC2(CCCN(c3cccc(F)c3)C2)C1 (stereo unspecified) | -3.57 |
| CS(=O)(=O)N1CCCc2sc(C(=O)NC3CC3)nc21 | -3.24 |

// moving on: another record for cytotoxicity at 70.5 h
Looking up Cc1cnc(N2CCC3(C2)C(=O)N(C)CCN3Cc2cccnc2)nc1 (stereo unspecified) , I found its cytotoxicity at 70.5 h recorded as -5.14

Data origin, for the record: ChEMBL document CHEMBL3507680
